Values from BigSolDB 2.1

- setupConditions: in dichloromethane, 310 K
property: solubility (mole fraction)
In your answer, state the number alone without any accompanying words.

Recorded solubility (mole fraction) of `CO[C@H]1C[C@@H]2CC[C@@H](C)[C@@](O)(O2)C(=O)C(=O)N2CCCC[C@H]2C(=O)O[C@H]([C@H](C)C[C@@H]2CC[C@@H](O)[C@H](OC)C2)CC(=O)[C@H](C)/C=C(\C)[C@@H](O)[C@@H](OC)C(=O)[C@H](C)C[C@H](C)/C=C/C=C/C=C/1C` , please.
0.00246
